Assignment: determine reported kon for the given binders.
System: SARS-COV-2 RBD extracellular domain expressed with a C-terminal mouse IgG2a Fc (SARS-CoV-2)
Assay Text: Biacore SPR, mAb captured on anti-hFc, 25 C

Worked cases, answers included:
- Binder: "mAb14284 (antibody, V domains shown) VH: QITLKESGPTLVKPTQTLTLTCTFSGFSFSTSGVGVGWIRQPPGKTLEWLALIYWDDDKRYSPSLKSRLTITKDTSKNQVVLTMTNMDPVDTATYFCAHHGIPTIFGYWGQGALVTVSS VL: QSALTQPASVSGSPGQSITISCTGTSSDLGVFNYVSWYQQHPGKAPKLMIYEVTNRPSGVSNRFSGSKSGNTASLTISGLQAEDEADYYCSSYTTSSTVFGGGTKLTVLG"
  kon: "831000 M⁻¹ s⁻¹"
- Binder: "mAb15160 (antibody, V domains shown) VH: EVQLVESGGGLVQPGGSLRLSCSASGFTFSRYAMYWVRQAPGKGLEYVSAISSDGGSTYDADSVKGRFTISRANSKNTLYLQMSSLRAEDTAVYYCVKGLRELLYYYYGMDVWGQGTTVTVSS VL: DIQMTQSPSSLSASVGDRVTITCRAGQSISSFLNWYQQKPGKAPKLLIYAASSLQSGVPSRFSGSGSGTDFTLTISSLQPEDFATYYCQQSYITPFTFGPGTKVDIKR"
  kon: "258000 M⁻¹ s⁻¹"
- Binder: "mAb15158 (antibody, V domains shown) VH: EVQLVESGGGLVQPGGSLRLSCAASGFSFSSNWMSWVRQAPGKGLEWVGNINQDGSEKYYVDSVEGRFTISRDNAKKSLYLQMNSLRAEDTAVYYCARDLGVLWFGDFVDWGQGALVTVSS VL: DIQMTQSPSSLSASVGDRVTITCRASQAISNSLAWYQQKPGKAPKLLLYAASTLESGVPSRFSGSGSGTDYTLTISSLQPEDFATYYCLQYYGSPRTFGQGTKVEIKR"
  kon: "453000 M⁻¹ s⁻¹"
- Binder: "mAb15162 (antibody, V domains shown) VH: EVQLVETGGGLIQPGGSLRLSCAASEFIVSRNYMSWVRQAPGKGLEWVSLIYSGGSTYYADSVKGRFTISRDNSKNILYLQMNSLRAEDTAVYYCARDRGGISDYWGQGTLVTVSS VL: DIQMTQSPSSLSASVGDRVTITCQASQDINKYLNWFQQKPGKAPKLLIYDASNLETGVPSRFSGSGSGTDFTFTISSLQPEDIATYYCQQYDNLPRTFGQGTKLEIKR"
  kon: "1.29e+06 M⁻¹ s⁻¹"
- Binder: "mAb14286 (antibody, V domains shown) VH: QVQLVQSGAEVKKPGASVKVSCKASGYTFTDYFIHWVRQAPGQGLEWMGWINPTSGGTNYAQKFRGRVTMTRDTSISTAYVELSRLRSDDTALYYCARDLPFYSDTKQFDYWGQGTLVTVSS VL: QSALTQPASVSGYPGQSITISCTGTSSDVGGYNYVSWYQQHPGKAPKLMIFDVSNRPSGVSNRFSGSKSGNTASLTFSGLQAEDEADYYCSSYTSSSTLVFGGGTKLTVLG"
  kon: "2.95e+06 M⁻¹ s⁻¹"
- Binder: "mAb13458 (antibody, V domains shown) VH: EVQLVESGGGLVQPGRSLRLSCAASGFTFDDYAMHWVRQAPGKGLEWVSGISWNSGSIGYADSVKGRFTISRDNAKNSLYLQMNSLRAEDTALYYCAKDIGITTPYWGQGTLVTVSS VL: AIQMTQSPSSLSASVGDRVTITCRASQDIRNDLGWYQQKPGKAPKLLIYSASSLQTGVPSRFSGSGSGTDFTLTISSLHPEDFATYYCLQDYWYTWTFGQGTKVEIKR"
  kon: "1.18e+06 M⁻¹ s⁻¹"

Look at each binder and report its kon.
1. mAb14255 (antibody, V domains shown) VH: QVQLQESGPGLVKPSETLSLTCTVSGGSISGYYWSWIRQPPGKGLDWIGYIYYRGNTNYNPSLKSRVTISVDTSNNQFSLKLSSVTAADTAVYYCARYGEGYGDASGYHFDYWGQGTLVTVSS VL: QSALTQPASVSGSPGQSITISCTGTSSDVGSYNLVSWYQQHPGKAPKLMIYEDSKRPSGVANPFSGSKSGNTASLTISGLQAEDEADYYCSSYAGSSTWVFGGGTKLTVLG
2. mAb14230 (antibody, V domains shown) VH: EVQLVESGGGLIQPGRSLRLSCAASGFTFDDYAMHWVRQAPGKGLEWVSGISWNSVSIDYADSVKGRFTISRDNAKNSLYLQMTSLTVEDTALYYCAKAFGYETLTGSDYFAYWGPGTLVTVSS VL: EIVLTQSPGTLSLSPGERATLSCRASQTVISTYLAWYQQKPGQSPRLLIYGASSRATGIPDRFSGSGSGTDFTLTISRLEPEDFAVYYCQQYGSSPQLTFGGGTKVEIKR
3. mAb14234 (antibody, V domains shown) VH: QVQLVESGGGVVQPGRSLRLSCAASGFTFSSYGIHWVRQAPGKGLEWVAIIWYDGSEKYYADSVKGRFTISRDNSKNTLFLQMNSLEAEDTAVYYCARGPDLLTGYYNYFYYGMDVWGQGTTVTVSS VL: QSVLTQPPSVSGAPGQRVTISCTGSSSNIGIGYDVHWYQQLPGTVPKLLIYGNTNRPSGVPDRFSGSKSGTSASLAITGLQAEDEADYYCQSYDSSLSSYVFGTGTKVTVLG
4. mAb14283 (antibody, V domains shown) VH: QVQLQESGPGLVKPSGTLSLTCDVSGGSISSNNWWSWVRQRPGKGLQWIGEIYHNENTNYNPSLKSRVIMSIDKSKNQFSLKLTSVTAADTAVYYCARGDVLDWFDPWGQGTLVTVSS VL: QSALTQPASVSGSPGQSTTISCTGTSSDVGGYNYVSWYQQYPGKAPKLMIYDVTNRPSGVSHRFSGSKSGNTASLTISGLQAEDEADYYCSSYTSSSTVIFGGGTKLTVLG

Marked response:
["2.19e+06 M⁻¹ s⁻¹", "2e+06 M⁻¹ s⁻¹", "1.02e+06 M⁻¹ s⁻¹", "1.55e+06 M⁻¹ s⁻¹"]

So for mAb15170 (antibody, V domains shown) VH: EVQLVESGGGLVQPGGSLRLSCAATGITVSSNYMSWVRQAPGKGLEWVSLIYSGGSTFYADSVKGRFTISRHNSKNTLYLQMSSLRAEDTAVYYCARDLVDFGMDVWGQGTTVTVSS VL: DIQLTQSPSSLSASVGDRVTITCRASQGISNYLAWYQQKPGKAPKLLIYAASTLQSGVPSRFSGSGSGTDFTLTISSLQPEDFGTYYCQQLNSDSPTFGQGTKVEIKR , the logged kon turned out to be 339000 M⁻¹ s⁻¹
